Just for reference, patent US20260345742A1 is where these values come from.

Tested target: SARS-CoV-2 RBD (Severe acute respiratory syndrome coronavirus 2, UniProt P0DTC2)
Measurement notes: SPR binding (Biacore T200) of SARS-CoV-2 RBD to chip-linked biotinylated B-YL
Test context: Table 3; aqueous RBD over chip-linked B-YL; pH 7.4, 37 °C; KD=koff/kon
Description: FIG. 3. Surface plasmon resonance (SPR) sensorgrams of rbCovid-19-RBD protein construct and human ACE2 receptor binding to immobilized B-YL peptide. […] The binding affinity of the B-YL lung surfactant peptide to the coronavirus recombinant spike protein construct of SARS-CoV-2 (viral spike protein amino acid sequence) that included the Receptor Binding Domain (RBD) was measured with SPR spectroscopy using a Biacore T200 system (GE Healthcare Bio-Sciences Corp, Piscataway, NJ 08855). […]
Ends that are not written are not given here.
Value kind: pKd
// pKd here means minus log10 of the molar concentration (mol/L)

According to the records, this sequence FPIPLPYYWLYRALIKRIQALIPKGGRLLPQLVYRLVLRYS [B-YL] displays pKd of 4.24
